Biological target: DENV protease (Dengue virus type 2, UniProt P29990)
Construct: The virus-encoded dengue protease comprises the amino-terminal 180 amino acids of NS3 (NS3pro) of the polyprotein
Sequence (P29990 1398-1437): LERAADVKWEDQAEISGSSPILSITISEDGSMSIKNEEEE
Sequence (P29990 1476-1653): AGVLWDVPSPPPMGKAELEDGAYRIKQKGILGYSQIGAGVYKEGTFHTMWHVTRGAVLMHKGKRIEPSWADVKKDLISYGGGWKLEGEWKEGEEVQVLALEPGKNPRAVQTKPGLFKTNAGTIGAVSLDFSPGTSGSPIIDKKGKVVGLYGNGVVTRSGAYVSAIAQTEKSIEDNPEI
Assay: biochemical
Details: at 50 μM; read-out: inhibition of DENV
Where a SMILES comes first, the peptide text is derived from it. [ ]: non-standard residue; d: D form. The star is where a group is joined. Palmitoyl = CCCCCCCCCCCCCCCC(=O)*; hPhe = N[C@@H](CCc1ccccc1)C(=O)O
MEASURED PARAMETER: inhibition at 50 µM

Example entries begin here.
CCCCCCCCCCCCCCCC(=O)N[C@@H](CCCCN)C(=O)N[C@@H](C)C(=O)N[C@@H](C)C(=O)N[C@@H](CCCCN)C(=O)O [compound 189] (Palmitoyl-KAAK-OH) ... ≥ 25%
CCCCCCCCCCCCCCCC(=O)N[C@@H](CCCCN)C(=O)N1CCC[C@H]1C(=O)N[C@@H](Cc1cnc[nH]1)C(=O)N[C@@H](CCc1ccccc1)C(N)=O [compound 11] (Palmitoyl-KPH[hPhe]-NH2) ... ≥ 25%

# input Which inhibition at 50 µM is reported for this compound? CCCCCCCCCCCCCCCC(=O)N[C@@H](CCCCN)C(=O)N[C@@H](C)C(=O)N[C@@H](CCCCN)C(=O)c1ccccc1 [compound 174]
# output ≥ 25%
